ASSAY_SYSTEM: mouse ELP2 protein (Mus musculus)
Sequence (Q91WG4 1-831): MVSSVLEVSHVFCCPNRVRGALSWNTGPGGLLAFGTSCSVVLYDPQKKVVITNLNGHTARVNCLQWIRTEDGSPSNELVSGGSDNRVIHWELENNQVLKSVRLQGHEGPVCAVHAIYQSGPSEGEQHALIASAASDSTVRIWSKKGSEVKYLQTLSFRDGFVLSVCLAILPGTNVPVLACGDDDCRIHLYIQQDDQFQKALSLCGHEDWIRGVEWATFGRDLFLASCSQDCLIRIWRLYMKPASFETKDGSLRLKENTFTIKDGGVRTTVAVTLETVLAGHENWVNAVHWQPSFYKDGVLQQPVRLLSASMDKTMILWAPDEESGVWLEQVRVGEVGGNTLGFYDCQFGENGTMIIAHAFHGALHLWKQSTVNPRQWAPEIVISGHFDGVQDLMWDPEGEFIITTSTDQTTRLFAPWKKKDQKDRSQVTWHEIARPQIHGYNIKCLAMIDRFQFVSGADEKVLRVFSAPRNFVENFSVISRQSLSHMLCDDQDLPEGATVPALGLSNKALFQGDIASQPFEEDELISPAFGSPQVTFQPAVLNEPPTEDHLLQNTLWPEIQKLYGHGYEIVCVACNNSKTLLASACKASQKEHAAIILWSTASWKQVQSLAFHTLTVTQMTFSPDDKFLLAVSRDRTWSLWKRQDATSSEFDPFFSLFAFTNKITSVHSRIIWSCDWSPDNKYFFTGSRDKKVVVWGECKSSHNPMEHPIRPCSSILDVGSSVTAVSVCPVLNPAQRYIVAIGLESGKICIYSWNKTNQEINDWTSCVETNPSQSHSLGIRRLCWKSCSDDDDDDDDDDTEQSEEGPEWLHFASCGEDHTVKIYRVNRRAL
ASSAY_METHOD_TEXT: Surface plasmon resonance (SPR) affinity analysis, compounds fixed on the chip
Format: binding
CONDITION_PARAMETERS: SPR, Elp2 protein 200 nM to 3200 nM passed over the immobilized compound; read-out: Avg KD
OUTCOME_MEASURE: Kd (µM)

The following compounds have reported results that may help.
{"COMPOUND": "Cc1cc(O)cc(=O)n1C[C@H](O)c1ccc(O)cc1 [9#]", "Kd / µM": 149}
{"COMPOUND": "COc1cc(CCN)c(-c2csc(-c3ccc(O)cc3)n2)cc1OC [5#]", "Kd / µM": 3.28}

[I] CC1CCCC2(C)CC3OC(=O)C(CN4CCN(C(=O)c5ccco5)CC4)C3C=C12 (stereo not drawn) [8#]
[II] Cc1cc(O)cc(=O)n1C[C@@H](O)c1cccc(O)c1 [11#]
INPUT: Sorting by Kd in descending order, would I or II appear first? Lab note: record the label of whichever item you select.
OUTPUT: II

[a] O=C1c2ccccc2-c2c1c1ccccc1c(=O)n2NCCO [2#]
[b] COc1ccc([C@H](CC(=O)N[C@@H](Cc2ccccc2)C(N)=O)c2oc(C)cc(=O)c2O)cc1 [1#]
INPUT: Looking only at measured Kd, which entry is lower, a or b ? Lab note: record the label of whichever item you select.
OUTPUT: a

* * *

Tested on: MC3T3-E1 cells
ASSAY_METHOD_TEXT: Alkaline phosphatase (ALP) activity under TNF-α-induced osteogenic differentiation inhibition, SD model
Format: cell-based
CONDITION_PARAMETERS: Mus musculus, SD model, TNF-α
OUTCOME_MEASURE: EC50 (µM)
Write down the numeric answer in µM and omit the unit.

{"MOLECULE": "O=C1c2ccccc2-c2c1c1ccccc1c(=O)n2NCCO", "EC50 / µM": 29.7}

// returns EC50 for COc1cc(CCN)c(-c2csc(-c3ccc(O)cc3)n2)cc1OC with MC3T3-E1 cells; value = 18.2
